growth values for the molecules below.
Test system: OVCAR-3 ovarian
Assay: NCI-60 one-dose screen, 48 h (100 = growth as untreated, 0 = no growth, -100 = all killed)
Conditions: 10 µM
This is part of a sample that, as a whole, favours compounds with a hit. Of some 83,000 tested, about 20% had one in any assay.
Record the value in %, omitting the unit from your answer.

Here is how some molecules turned out for growth.
CN1CCc2c(sc3ncnc(N/N=C/c4cn(-c5ccccc5)nc4-c4ccc(Cl)cc4)c23)C1	-17.2
Cc1noc2c(Cc3ccccc3)nn(CC(=O)N/N=C/c3ccc(Cl)cc3)c(=O)c12	-31.8
CCN(CC)CCOc1ccc(C(=C(C)c2ccccc2)c2ccc(OCCN(CC)CC)cc2)cc1	-7.71

Field: next molecule
Reported growth, molecule O=C(c1ccc(Cl)cc1)C1[C@H](c2ccc(Br)cc2)[C@@H](c2ccccc2)NC12C(=O)Nc1ccc(Br)cc12 (some centres undefined) : ____
-89.7

====

Tested on: NCI-H522 lung
Assay: NCI-60 one-dose screen, 48 h (100 = growth as untreated, 0 = no growth, -100 = all killed)
Details: 10 µM
Compounds without any hit were thinned out: in the full panel of roughly 83,000, 20% have a hit.
The following compounds are shown together with reported growth values.
Could you give me the number in %? Just the number is fine.

Solved entries:
O=C(NO)c1ccc(CNC(=O)[C@H]2Cc3c([nH]c4ccccc34)[C@H](c3ccccc3)N2)cc1	-8.88
C=C1CCC2C3(C)COC(c4cc(F)cc(F)c4)OC3CCC2(C)C1C/C=C1/C(=O)OCC1O (stereo not drawn)	-79.8

I have this compound here, O=C(CSc1nnc(-c2ccc3nc(-c4ccc(Cl)cc4)[nH]c3c2)o1)Nc1ccc(Br)cc1 , and I need its recorded growth.
-67.9

====

Tested on: SNB-19 CNS
Test: NCI-60 one-dose screen, 48 h (100 = growth as untreated, 0 = no growth, -100 = all killed)
Settings: 10 µM
About 83,000 compounds went through this panel and 20% of them were active in at least one assay; those are over-represented in the sample as a whole.
Below, each entry is listed with its recorded growth.
Record the value in %, omitting the unit from your answer.

COC(=O)C[C@](O)(CCCC(C)(C)O)C(=O)O[C@H]1C(OC)=C[C@@]23CCC(=O)N2CCc2cc4c(cc2[C@@H]13)OCO4	84.4
N#Cc1c(NC(=O)c2ccc(C(F)(F)F)cc2)sc2c1CCC(=O)C2	-42.2

Please look at the following molecule next.
Entry COC(=O)C(Cc1ccc(O)c(O)c1)NC(=O)C(CSC/C=C(\C)CCCC(C)CCCC(C)CCCC(C)C)NC(C)=O (stereo not drawn) , system SNB-19 CNS: what growth was measured?
10.8

====

Test system: A549/ATCC NSCLC
Assay: NCI-60 one-dose screen, 48 h (100 = growth as untreated, 0 = no growth, -100 = all killed)
Settings: 10 µM
This is part of a sample that, as a whole, favours compounds with a hit. Of some 83,000 tested, about 20% had one in any assay.
Measurement Name: growth (%)
// units = %; emit number, no label

COc1ccc(/C(CSc2nnc(-c3c[nH]c4ccccc34)n2-c2ccccc2)=N/O)cc1	34.2
O=S(=O)(Nc1ncccn1)c1ccc(-n2c(-c3ccccc3)nc(-c3ccccc3)c2-c2ccccc2)cc1	89.7
CS(=O)(=O)Nc1ccc(-c2ccc3c(c2)ncn3-c2ccc(NC(=O)Nc3ccc(Br)cc3)cc2)cc1	12.1
Nc1nnc(-c2c[nH]c3ccc(F)cc23)c(-c2c[nH]c3ncccc23)n1	74
Cc1ccc2nc(COc3ccc(C(=O)NNC(=S)NC(=O)c4ccccc4)cc3)[nH]c2c1	53.9

Value wanted: growth (A549/ATCC NSCLC) of entry Cc1ccc(/C=C/C(=O)c2ccc(NC(=O)CSc3nnc(-c4c[nH]c5ccccc45)n3-c3ccccc3)cc2)c(C)c1
54.3

Recall the recorded growth for Cc1nc2c(cnn2-c2ccccc2)c(=O)n1-c1ccc(NC(=O)c2ccc(F)cc2)cc1 with A549/ATCC NSCLC and state it.
54.6

Tell me reported growth for O=C(CSc1nnc(-c2c[nH]c3ccccc23)n1-c1ccccc1)c1ccccc1 , tested with A549/ATCC NSCLC.
85.5

Give recorded growth with A549/ATCC NSCLC for the following compound: COC[C@@H](CC(C)C)N=C1NC(=O)/C(=C/c2ccc3ncsc3c2)N1
13.5

====

Test system: UACC-62 melanoma
Assay: NCI-60 one-dose screen, 48 h
Conditions: 10 µM
About 83,000 compounds went through this panel and 20% of them were active in at least one assay; those are over-represented in the sample as a whole. The source made the active and inactive calls. How the source made its calls: active means growth percent below 10; inactive means the rest.
Respond with a class label; see active, inactive

See these solved cases before continuing.
Cc1cc2c(c(O)c1Br)-c1ncoc1C(=O)[C@]1(C)CC[C@H](C(C)C)[C@H]21	inactive
O=C(c1ccc(O)cc1)C1[C@H](c2ccccc2Br)[C@@H](c2ccccc2)NC12C(=O)Nc1ccc(Br)cc12 (stereo partly specified)	inactive
Cc1ccc2nc(-c3ccc(-c4nnc(SCC(=O)Nc5ccc(Br)cc5)o4)cc3)[nH]c2c1	inactive
O=C(Cn1nc(-c2ccccc2)ccc1=O)NNC(=S)NC1CCCCC1	inactive
COc1ccc(OC)c(/C=N/NC(=O)c2ccc3nc(-c4ccc(Cl)cc4)[nH]c3c2)c1	inactive

I would be grateful if you could indicate the recorded call for CC(C)C1=C[C@@]23CC[C@@H]4[C@](C)(CCC[C@]4(C)C(=O)NCc4ccccc4)[C@H]2C[C@@H]1[C@H]1C(=O)OC(=O)[C@H]13 .
inactive

I'd appreciate the recorded outcome for N#Cc1ccc(-c2nn(-c3ccc(C(=O)O)cc3)cc2CNc2ccc(Oc3ccccc3)cc2)cc1 from this test.
inactive

# lookup: test call for COc1ccc2cc([C@H](C)C(=O)NCc3ccccc3)ccc2c1
inactive

Tell me the assay call for CCN1CCN(Cc2ccc(C(=O)Nc3cccc(-c4cn(-c5ccc6oc(=O)ccc6c5)nn4)c3)cc2C(F)(F)F)CC1 please.
active

====

Test system: NCI-H322M lung
Test: NCI-60 one-dose screen, 48 h (100 = growth as untreated, 0 = no growth, -100 = all killed)
Settings: 10 µM
About 83,000 compounds went through this panel and 20% of them were active in at least one assay; those are over-represented in the sample as a whole.
Measurement Name: growth (%)
Report the figure in % without appending any unit label.

Example entries and their recorded answers appear below.
Cc1ccc(-c2cc(C(=O)N=Nc3c(O)[nH]c4ccc(Br)cc34)c3ccccc3n2)cc1	80.9
Cc1ccc(-c2nc(Nc3ccc(C)c(S(N)(=O)=O)c3)c3ccccc3n2)cc1	79.7
CN1CCN(c2ccc(Nc3nc(NCCCNC(=O)c4ccc(F)cc4)c4sccc4n3)cc2)CC1	79.9
O=C1Nc2cc(-c3ccc(NC(=O)c4cccs4)cc3)ccc2/C1=C/c1ccc[nH]1	99.3
O=C(O)CCCCCCCCCCN1C(=O)/C(=C/c2cnc(-c3ccc(Cl)cc3)s2)SC1=S	5.41
CC1(C)CC[C@]2(C(=O)NCCCNCCCCNCCCN)CC[C@]3(C)C(=CC[C@@H]4[C@@]5(C)Cc6c([nH]c7ccccc67)C(C)(C)[C@@H]5CC[C@]43C)[C@H]2C1	101

NCI-H322M lung / growth / Cc1ccn2c(C(=O)c3ccccc3)cc(-c3cc(-c4ccc(N(C)C)cc4)c(C#N)c(N)n3)c2c1 : value?
75.1

Form: Entry = Cc1ccc(F)cc1N/C=c1\s/c(=C(\C#N)C(=O)Nc2ccccc2)n(-c2ccccc2)c1=O | System = NCI-H322M lung | growth = ____
81.8

Recall the recorded growth for COc1cccc(-c2ccc(/C=N/NC(=O)c3[nH]c4ccc(Br)cc4c3-c3ccccc3)o2)c1 with NCI-H322M lung and state it.
45.7

Request - read-out growth | tested on NCI-H322M lung | compound Cn1cc(/C=N/Nc2ccnc3cc(Cl)ccc23)c2ccccc21
-99.6

====

Tested on: SK-OV-3 ovarian
Experiment: NCI-60 one-dose screen, 48 h (100 = growth as untreated, 0 = no growth, -100 = all killed)
Settings: 10 µM
Compounds without any hit were thinned out: in the full panel of roughly 83,000, 20% have a hit.
Please use Criterion met whenever growth is not below 80%, and Criterion not met whenever it is.

The following compounds have reported results that may help.
C/C(=N\NC(N)=S)c1ccc(Nc2nc(SC(C)C)nc(-c3ccccc3)c2C#N)cc1	Criterion met
COc1ccccc1C(=O)NNC(=O)CSc1nc2c(c(=O)[nH]1)CCCC2	Criterion met
N#Cc1ccc(-c2nn(-c3ccc(C(=O)O)cc3)cc2CNc2cc(Cl)cc(Cl)c2)cc1	Criterion met
O=c1c2ccccc2nc(COc2ccccc2)n1/N=C/c1ccc(F)cc1	Criterion met
CN(C)c1ccc(/C=C/c2nc3ccccc3c(=O)n2CC(=O)Nc2ccccc2)cc1	Criterion met
CN1C/C(=C\c2ccc(O)cc2O)c2[o+]c3cc(O)ccc3cc2C1	Criterion met
Cc1cc(C)nc(NS(=O)(=O)c2ccc(N/C(N)=N/c3nccc(-c4cccs4)n3)cc2)n1	Criterion met
OCc1[nH]nc2cc(Nc3ncc4ccc(Br)c(OC5CCC(O)CC5)c4n3)ccc12 (stereo unspecified)	Criterion not met
CCCS(=O)(=O)c1oc(-c2ccc(F)cc2)nc1S(=O)(=O)c1ccc(F)cc1	Criterion met

Given the entry COc1cnc2c(c1)C(=O)c1c-2n(CCCNC(C)C)c(=O)c2cc(OC)c(OC)cc12 , answer whether its growth meets or surpasses 80%.
Criterion not met
